Reference source for all entries: patent US20190085024A1

# reported pKi; entries follow
target-or-test-system: Cat S (Homo sapiens)
Sequence (P25774 115-331): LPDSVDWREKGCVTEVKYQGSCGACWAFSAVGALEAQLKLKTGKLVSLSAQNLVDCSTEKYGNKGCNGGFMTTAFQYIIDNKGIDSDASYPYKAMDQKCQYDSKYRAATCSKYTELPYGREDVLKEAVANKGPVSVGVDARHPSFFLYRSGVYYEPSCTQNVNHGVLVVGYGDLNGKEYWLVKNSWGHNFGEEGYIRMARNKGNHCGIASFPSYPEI
The read-out pKi is expressed as -log10 of concentration in moles per litre.

Examples with their reported pKi follow.
CC(NC(=O)C(Cc1ccccc1)NC(=O)c1ccccc1)C(=O)C(=O)NC(Cc1ccccc1)C(=O)NC(C)(C)C(N)=O (stereo not shown) = 8.35
CC(NC(=O)C(Cc1ccccc1)NC(=O)Cc1ccccc1)C(=O)C(=O)NC(Cc1ccccc1)C(=O)NC(C)(C)C(N)=O (stereo not shown) = 8.17
CC(NC(=O)C(Cc1ccccc1)NC(=O)Cc1ccccc1)C(=O)C(=O)NC(Cc1ccccc1)C(=O)NC(C)(C)C(=O)NCCc1ccccc1 (stereo not shown) = 7.94

Problem: Request - read-out pKi | tested on Cat S (Homo sapiens) | compound CC(NC(=O)C(Cc1ccccc1)NC(=O)c1ccccc1F)C(=O)C(=O)NC(Cc1ccccc1)C(=O)NC(C)(C)C(N)=O (stereo not shown)
Solution: 7.48
